# run_description: Hepatic microsomal stability
# Type: in vitro ADME
# conditions_used: mouse, liver microsomes, pH 7.4, intrinsic clearance, 1 μM OXA, 0.2 mg protein per ml
measured_quantity: microsomal CLint at 1 μM (µL/min/mg)
Only the number, expressed in µL/min/mg, is required.

Task: Which microsomal CLint at 1 μM value is on record for CC(C)NCC1CCc2cc(CO)c([N+](=O)[O-])cc2N1 (stereo not shown) ?
Output: 196

====

# run_description: Mouse pharmacokinetics
# Format: in vivo
# conditions_used: female, C57Bl/6J, mouse, plasma, po, 100 mg/kg, pH 4.5
measured_quantity: AUC(0-inf) (µM·h)
Only the number, expressed in µM·h, is required.

Task: Which AUC(0-inf) value is on record for CC(C)NCC1CCc2cc(CO)c([N+](=O)[O-])cc2N1 (stereo not shown) [OXA, oxamniquine] ?
Output: 26.1
